- Tested on: AECO001 (ATCC25922)
- test-method-notes: MIC broth microdilution, AECO001
- Format: cell-based, E. coli
- particulars: Escherichia coli, ATCC25922, read-out: MIC AECO001
- Description: Bacterial isolates were cultivated from −70° C. frozen stocks by overnight passages at 35° C. in ambient air on Mueller-Hinton agar (Beckton Dickinson, Franklin Lakes, N.J.). […] Minimum Inhibitory Concentrations (MICs) were determined by the broth microdilution method in accordance with the Clinical and Laboratory Standards Institute (CLSI) guidelines. […]
property-measured: MIC

Worked examples follow.
[
  {
    "compound": "CC(C)(O)[C@H](NC(=O)c1ccc(/C=C/C#Cc2ccc(CNC3CC3)cc2)cc1)C(=O)NO [Example 113-5]",
    "measurement": "< 2 µg/mL"
  },
  {
    "compound": "CC(C)[C@H](NC(=O)c1ccc(/C=C/C#Cc2ccc(CN3CCOCC3)cc2)cc1)C(=O)NO [Example 110-2]",
    "measurement": "< 2 µg/mL"
  },
  {
    "compound": "C[C@H](N)[C@H](NC(=O)c1ccc(C#Cc2ccc(CN3CCOCC3)cc2)cc1)C(=O)NO [Example 133-2]",
    "measurement": "< 2 µg/mL"
  },
  {
    "compound": "C[C@@H](O)[C@H](NC(=O)c1ccc(C#C/C=C/c2ccc(CN3CCOCC3)cc2)cc1)C(=O)NO [Example 96-1]",
    "measurement": "< 2 µg/mL"
  },
  {
    "compound": "C[C@@H](N)[C@H](NC(=O)c1ccc(C#C/C=C/C2CC2)cc1)C(=O)NO [Example 107-2]",
    "measurement": "< 2 µg/mL"
  },
  {
    "compound": "O=C(N[C@H](C(=O)NO)C1CCNCC1)c1ccc(C#Cc2ccc(CN3CCOCC3)cc2)cc1 [Example 65-6]",
    "measurement": "16 to 64 µg/mL"
  },
  {
    "compound": "C[C@@H](N)[C@H](NC(=O)c1ccc(C#CC#Cc2cncn2C)cc1)C(=O)NO [Example 88-1]",
    "measurement": "< 2 µg/mL"
  },
  {
    "compound": "C[C@@H](O)[C@H](NC(=O)c1ccc(C#C/C=C/c2ccccc2)cc1)C(=O)NO [Example 104-1]",
    "measurement": "< 2 µg/mL"
  },
  {
    "compound": "C[C@H](O)[C@H](NC(=O)c1ccc(C#C/C=C/c2ccc(CO)cc2)cc1)C(=O)NO [Example 101-4]",
    "measurement": "< 2 µg/mL"
  },
  {
    "compound": "C[C@@H](NCC(=O)NC[C@H](NC(=O)c1ccc(C#C/C=C/c2ccccc2)cc1)C(=O)NO)c1ccccc1 [Example 105-4]",
    "measurement": "< 2 µg/mL"
  }
]

Look up MIC for this compound: C[C@@H](O)[C@H](NC(=O)c1ccc(C#CC#Cc2ccc(CO)cc2)cc1)C(=O)NO [Example 82-14]
< 2 µg/mL

Look up MIC for this compound: C[C@@H](N)[C@H](NC(=O)c1ccc(C#Cc2ccc(NC(=O)CNC3CC3)cc2)cc1)C(=O)NO [Example 130-1]
2 to 16 µg/mL

Look up MIC for this compound: CC(C)(N)[C@H](NC(=O)c1ccc(C#CC#Cc2ccc(CNC3CC3)cc2)cc1)C(=O)NO [Example 87-4]
< 2 µg/mL

Look up MIC for this compound: C[C@@H](N)[C@H](NC(=O)c1ccc(C#CC#Cc2ccc(OC(F)(F)F)cc2)cc1)C(=O)NO [Example 82-11]
2 to 16 µg/mL

Look up MIC for this compound: NC[C@H](NC(=O)c1ccc(C#C/C=C/c2ccc(CNC3CC3)cc2)cc1)C(=O)NO [Example 102-3]
< 2 µg/mL
